From: patent US12043602B2

test system: MDCK cells co-expressing GFP-K-RASG12V and mCherry-CAAX; assay: Cytotoxicity in mislocalization screen (death of all cells in well); conditions: drug caused death of all cells in well at 30 μM
endpoint: Cytotoxic at 30 μM

C[C@H](c1ccc(Cl)cc1)N(CC=C(c1ccccc1)c1ccccc1)CCN1CCN(C)CC1    Yes
C[C@H](c1ccc(F)cc1)N(CCN1CCCC1)C(=O)c1ccc(C(F)(F)F)cc1    No
COc1ccc([C@@H](C)N(CC=C(c2ccccc2)c2ccccc2)CCN2CCN(C(=O)OC(C)(C)C)CC2)cc1    No
C[C@@H](NCC(=O)N1c2ccccc2Sc2ccccc21)c1ccc(F)cc1    No
